test-name: Drug uptake in id dosed rat liver after 4 hrs
Assay type: ADME, organism-based
condition-description: read-out: Drug uptake
property-name: concentration at 4 h (ng/g)

sample-smiles	property-name	numeric-value
C=C[C@@H]1C[C@]1(NC(=O)[C@@H]1C[C@@](OC)(c2ccc(-c3ccccc3)cc2)CN1C(=O)[C@@H](NC(=O)OC(C)(C)C)C(C)(C)C)C(=O)NS(=O)(=O)C1CC1	concentration at 4 h	195000
C=C[C@@H]1C[C@]1(NC(=O)[C@@H]1C[C@@](O)(c2ccc(-c3ccccc3)cc2)CN1C(=O)[C@@H](NC(=O)OC(C)(C)C)C(C)(C)C)C(=O)NS(=O)(=O)C1CC1	concentration at 4 h	128
C=C[C@@H]1C[C@]1(NC(=O)[C@@H]1C[C@@H](Oc2nccc3cc(OC)ccc23)CN1C(=O)[C@@H](NC(=O)OC(C)(C)C)C(C)(C)C)C(=O)NS(=O)(=O)C1CC1	concentration at 4 h	64700

---

System: Heart
test-name: Cardiotoxicity in Langendorff perfused rabbit heart assessed as heart rate at 10 uM perfused for 10 mins (reference value: -1 +/- 1%)
Format: toxicity, tissue-based, Oryctolagus cuniculus

sample-smiles	Activity, %
C=C[C@@H]1C[C@]1(NC(=O)[C@@H]1C[C@@H](Oc2nccc3cc(OC)ccc23)CN1C(=O)[C@@H](NC(=O)OC(C)(C)C)C(C)(C)C)C(=O)NS(=O)(=O)C1CC1	-13
C=C[C@@H]1C[C@]1(NC(=O)[C@@H]1C[C@@H](Oc2ncc(OC)c3ccc(Cl)cc23)CN1C(=O)[C@@H](NC(=O)OC(C)(C)C)C(C)(C)C)C(=O)NS(=O)(=O)C1CC1	1
C=C[C@@H]1C[C@]1(NC(=O)[C@@H]1C[C@@](OC)(c2ccc(-c3ccccc3)cc2)CN1C(=O)[C@@H](NC(=O)OC(C)(C)C)C(C)(C)C)C(=O)NS(=O)(=O)C1CC1	-6
C=C[C@@H]1C[C@]1(NC(=O)[C@@H]1C[C@@](O)(c2ccc(-c3ccccc3)cc2)CN1C(=O)[C@@H](NC(=O)OC(C)(C)C)C(C)(C)C)C(=O)NS(=O)(=O)C1CC1	-2
